molecular target: soluble guanylate cyclase (sGC) (Homo sapiens (Human), UniProt Q02108+Q02153); experiment: sGC-HEK-cGMP assay run with SNP incubation (HEK WC assay); type: cell-based; conditions: read-out: HEK WC Assay (% Emax at 30 μM with 10 uM SNP)
Sequence (Q02153 whole entry): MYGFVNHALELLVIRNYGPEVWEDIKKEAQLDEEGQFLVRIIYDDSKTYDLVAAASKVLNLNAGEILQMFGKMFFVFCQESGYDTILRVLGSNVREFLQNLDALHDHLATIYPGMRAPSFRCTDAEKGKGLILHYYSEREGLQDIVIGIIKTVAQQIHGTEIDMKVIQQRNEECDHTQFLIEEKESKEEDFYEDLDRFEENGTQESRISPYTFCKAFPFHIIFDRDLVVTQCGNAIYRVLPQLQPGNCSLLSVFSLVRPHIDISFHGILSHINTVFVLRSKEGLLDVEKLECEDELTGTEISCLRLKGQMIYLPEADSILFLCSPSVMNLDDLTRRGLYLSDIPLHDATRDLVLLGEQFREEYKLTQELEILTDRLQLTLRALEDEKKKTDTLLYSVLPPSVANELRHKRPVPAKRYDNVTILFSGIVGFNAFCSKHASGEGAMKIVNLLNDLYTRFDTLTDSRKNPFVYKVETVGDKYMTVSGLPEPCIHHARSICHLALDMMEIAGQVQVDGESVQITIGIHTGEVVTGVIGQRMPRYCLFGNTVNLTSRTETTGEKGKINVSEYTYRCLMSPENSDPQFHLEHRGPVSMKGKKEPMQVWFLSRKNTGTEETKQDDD
Sequence (Q02108 whole entry): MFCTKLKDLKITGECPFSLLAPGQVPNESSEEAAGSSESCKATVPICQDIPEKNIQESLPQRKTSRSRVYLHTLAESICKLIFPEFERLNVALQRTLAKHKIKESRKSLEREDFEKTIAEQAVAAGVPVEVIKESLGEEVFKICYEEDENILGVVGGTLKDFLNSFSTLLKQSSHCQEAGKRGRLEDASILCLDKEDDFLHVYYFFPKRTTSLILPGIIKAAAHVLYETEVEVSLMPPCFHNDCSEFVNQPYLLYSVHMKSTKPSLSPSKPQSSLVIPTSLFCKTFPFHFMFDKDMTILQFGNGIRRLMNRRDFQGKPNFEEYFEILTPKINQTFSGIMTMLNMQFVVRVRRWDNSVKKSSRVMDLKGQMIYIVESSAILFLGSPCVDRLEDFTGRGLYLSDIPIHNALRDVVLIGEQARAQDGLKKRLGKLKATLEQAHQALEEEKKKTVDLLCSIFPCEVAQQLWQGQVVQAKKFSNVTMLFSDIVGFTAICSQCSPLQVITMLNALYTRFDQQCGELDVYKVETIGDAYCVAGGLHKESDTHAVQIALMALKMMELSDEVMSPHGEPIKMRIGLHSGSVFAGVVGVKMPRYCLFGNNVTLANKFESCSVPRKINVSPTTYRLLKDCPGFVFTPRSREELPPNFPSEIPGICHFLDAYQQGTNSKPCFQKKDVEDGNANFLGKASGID
Give Emax for every item shown.

Example entries and their recorded answers appear below.
>>> readout_value("Fc1ccccc1Cn1nc(-c2ccccn2)cc1N1CCC1")
"0 to 10%"
>>> readout_value("Cc1csc(-c2cc(-c3ncccn3)nn2Cc2ccccc2F)n1")
"20 to 40%"
>>> readout_value("Cc1ccccc1C(=O)Nc1cnc(-c2cc(-c3ccon3)n(Cc3ccccc3F)n2)nc1N")
"80 to 100%"

Please turn your attention to the following entry.
Reported Emax ( "CCOC(=O)c1cnc(-c2cc(-c3ccon3)n(Cc3ccccc3F)n2)nc1NCc1ccc(OC)cc1" ) = 0 to 10%

###

Give Emax for every item shown.
molecular target: soluble guanylate cyclase (sGC) (Homo sapiens (Human), UniProt Q02108+Q02153); assay: sGC-HEK-cGMP assay run with SNP incubation (HEK WC assay); format: cell-based; conditions: read-out: HEK WC Assay (% Emax at 30 μM with 10 uM SNP)

>>> readout_value("Fc1ccccc1Cn1nc(-c2ncccn2)cc1-c1ccon1")
"60 to 80%"

// for each molecule in input: emit Emax
1. COc1ccc(C2=Nc3nc(-c4cc(-c5ccon5)n(Cc5ccccc5F)n4)ncc3C(C)(C)O2)cc1
2. CC(C)COC(=O)Nc1cnc(-c2cc(-c3ccon3)n(Cc3ccccc3F)n2)nc1N

1. 40 to 60%
2. 80 to 100%

// for each molecule in input: emit Emax
1. Nc1nc(-c2cc(-c3ccon3)n(Cc3ccccc3F)n2)ncc1NC(=O)OCCCl
2. CO[C@@](C(=O)Nc1cnc(-c2cc(-c3ccon3)n(Cc3ccccc3F)n2)nc1N)(c1ccccc1)C(F)(F)F
3. Nc1nc(-c2cc(-c3ccon3)n(Cc3ccccc3F)n2)ncc1NC(=O)OCc1ccccc1
4. Nc1nc(-c2cc(-c3ccon3)n(Cc3ccccc3F)n2)ncc1NC(=O)C1(c2ccccc2)CCC1
5. O=S(=O)(c1ccc(F)cc1)c1cnc(-c2cc(-c3ccon3)n(Cc3ccccc3F)n2)nc1O
6. Nc1nc(-c2cc(-c3ccon3)n(Cc3ccccc3F)n2)ncc1N1Cc2ccccc2C1=O
7. Nc1nc(-c2cc(-c3ccon3)n(Cc3ccccc3F)n2)ncc1NC(=O)c1cocn1
8. Oc1nc(-c2cc(-c3ccon3)n(Cc3ccccc3F)n2)ncc1Br

40 to 60%
20 to 40%
80 to 100%
20 to 40%
40 to 60%
60 to 80%
80 to 100%
40 to 60%

// for each molecule in input: emit Emax
1. Fc1cccc(Cn2nc(-c3ncccn3)cc2-c2ccon2)c1
2. Nc1nc(-c2cc(-c3ccon3)n(Cc3ccccc3F)n2)ncc1NC(=O)C1(C(F)(F)F)CCC1
3. Nc1nc(-c2cc(-c3ncco3)n(Cc3ccccc3F)n2)ncc1NC(=O)c1ccccc1
4. c1cnc(-c2cc(-c3ccon3)n(Cc3cncnc3)n2)nc1
5. Nc1nc(-c2cc(-c3ccon3)n(Cc3ccccc3F)n2)ncc1NC(=O)c1ccccc1Cl

40 to 60%
60 to 80%
80 to 100%
10 to 20%
100 to 120%

###

target: soluble guanylate cyclase (sGC) (Homo sapiens (Human), UniProt Q02108+Q02153); test: sGC-HEK-cGMP assay run with SNP incubation (HEK WC assay); assay type: cell-based; settings: read-out: HEK WC Assay (% Emax at 10 μM with 10 uM SNP)
Give Emax for every item shown.

>>> readout_value("Fc1ccccc1Cn1nc(-c2ncccn2)cc1-c1ccco1")
"20 to 40%"

// for each molecule in input: emit Emax
1. CC(C)COC(=O)Nc1cnc(-c2cc(-c3ccon3)n(Cc3ccccc3F)n2)nc1N
2. Nc1nc(-c2cc(-c3ccon3)n(Cc3ccccc3F)n2)ncc1NC(=O)c1cocn1
3. CC(C)(CCl)C(=O)Nc1cnc(-c2cc(-c3ccon3)n(Cc3ccccc3F)n2)nc1N
4. CC1(C(=O)Nc2cnc(-c3cc(-c4ccon4)n(Cc4ccccc4F)n3)nc2N)CC1(F)F (centres unmarked)
5. Nc1nc(-c2cc(-c3ccon3)n(Cc3ccccc3F)n2)ncc1NC(=O)c1ccccn1
6. Oc1ccc(-c2cc(-c3ccccn3)nn2Cc2ccccc2F)cc1

["80 to 100%", "80 to 100%", "100 to 120%", "100 to 120%", "80 to 100%", "0 to 10%"]

Reported Emax ( "Nc1nc(-c2cc(-c3ccon3)n(Cc3ccccc3F)n2)ncc1NC(=O)c1ccon1" ) = 80 to 100%
